Assign pIC50 to each entry below.
# SYSTEM: aldosterone receptor (Rattus norvegicus)
# Construct: centrifuged at 105,000 g for 30 minutes, and then a supernatant was collected as a renal soluble fraction
# EXPERIMENT: Binding inhibition test for aldosterone receptor ([3H]aldosterone, rat renal soluble fraction)
# RECORDED_CONDITIONS: [3H]aldosterone 2 nM, rat renal soluble fraction, in the presence of 2 μM RU-486, 4° C. about 18 hours; read-out: MR IC50
# Protocol: Binding Inhibition Test for Aldosterone Receptor A rat was layed open in flank regions (on both sides) to remove both adrenal glands. After stitching up the incision, the rat was returnd to a breeding cage again. After removing the kidney from the rat reared for about 3 to 5 days, the kidney was homogenized in 0.1 M Tris-HCl, 0.25M sucrose, 0.1M Na2MoO4 and 2 mM DTT buffer solution (pH7.4). […]
pIC50: −log10 of the molar value.

Measured pIC50 of COc1cc(NC(=O)c2ccc(-c3ccccc3C(C)(F)F)c(CNCC(F)F)c2)ccc1S(N)(=O)=O : > 5.00

Measured pIC50 of COc1cc(F)ccc1-c1ccc(C(=O)Nc2ccc(S(N)(=O)=O)c(OC)c2)cc1CNCC(F)F : > 5.00

Measured pIC50 of COc1ccc(-c2ccc(C(=O)Nc3ccc(S(N)(=O)=O)c(OC)c3)cc2CNCC(F)F)c(C)c1 : > 5.00

---

Assign IC50 to each entry below.
# SYSTEM: aldosterone receptor (Rattus norvegicus, UniProt P22199)
# Construct: centrifuged at 105,000 g for 30 minutes, and then a supernatant was collected as a renal soluble fraction
# Sequence (P22199 whole entry): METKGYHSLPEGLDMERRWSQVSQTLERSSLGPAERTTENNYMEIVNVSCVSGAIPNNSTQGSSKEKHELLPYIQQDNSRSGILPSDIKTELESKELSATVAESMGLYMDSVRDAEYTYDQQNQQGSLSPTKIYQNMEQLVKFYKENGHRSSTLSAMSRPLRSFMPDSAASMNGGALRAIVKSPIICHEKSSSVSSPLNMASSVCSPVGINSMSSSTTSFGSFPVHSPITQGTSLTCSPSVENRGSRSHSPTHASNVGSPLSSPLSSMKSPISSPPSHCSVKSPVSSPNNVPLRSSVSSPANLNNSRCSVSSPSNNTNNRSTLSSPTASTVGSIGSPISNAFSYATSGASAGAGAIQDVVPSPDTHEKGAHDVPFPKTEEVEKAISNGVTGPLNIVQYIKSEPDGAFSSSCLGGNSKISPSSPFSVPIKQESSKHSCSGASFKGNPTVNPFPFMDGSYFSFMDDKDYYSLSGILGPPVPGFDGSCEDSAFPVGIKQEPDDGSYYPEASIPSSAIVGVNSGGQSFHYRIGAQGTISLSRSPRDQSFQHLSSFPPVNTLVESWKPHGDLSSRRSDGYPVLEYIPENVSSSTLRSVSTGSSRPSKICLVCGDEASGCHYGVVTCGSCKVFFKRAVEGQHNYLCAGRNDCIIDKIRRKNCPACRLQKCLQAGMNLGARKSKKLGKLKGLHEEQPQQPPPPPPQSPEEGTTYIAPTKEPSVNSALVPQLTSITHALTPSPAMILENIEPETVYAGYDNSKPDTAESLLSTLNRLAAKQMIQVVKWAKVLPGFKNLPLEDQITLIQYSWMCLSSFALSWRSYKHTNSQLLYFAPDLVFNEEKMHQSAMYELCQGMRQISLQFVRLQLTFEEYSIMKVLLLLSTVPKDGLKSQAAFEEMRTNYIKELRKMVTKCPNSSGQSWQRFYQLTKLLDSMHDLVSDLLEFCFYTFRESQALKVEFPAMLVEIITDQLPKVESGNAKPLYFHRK
# EXPERIMENT: Binding inhibition test for aldosterone receptor ([3H]aldosterone, rat renal soluble fraction)
# RECORDED_CONDITIONS: [3H]aldosterone 2 nM, rat renal soluble fraction, in the presence of 2 μM RU-486, 4° C. about 18 hours; read-out: MR IC50
# Experimental: Binding Inhibition Test for Aldosterone Receptor A rat was layed open in flank regions (on both sides) to remove both adrenal glands. After stitching up the incision, the rat was returnd to a breeding cage again. After removing the kidney from the rat reared for about 3 to 5 days, the kidney was homogenized in 0.1 M Tris-HCl, 0.25M sucrose, 0.1M Na2MoO4 and 2 mM DTT buffer solution (pH7.4). […]

Measured IC50 of COc1cc(NC(=O)c2ccc(-c3ccccc3-c3cccs3)cc2)ccc1S(N)(=O)=O : < 1 µM

Measured IC50 of COc1cc(NC(=O)c2ccc(-c3cccc(Cl)c3Cl)c(CNCC(F)F)c2)ccc1S(N)(=O)=O : < 10 µM

Measured IC50 of CS(=O)(=O)c1ccc(NC(=O)c2ccc(-c3ccccc3OC(F)(F)F)c(CN3CC(F)(F)C3)c2)cc1 : < 10 µM

---

# SYSTEM: aldosterone receptor (Rattus norvegicus, UniProt P22199)
# Construct: centrifuged at 105,000 g for 30 minutes, and then a supernatant was collected as a renal soluble fraction
# EXPERIMENT: Binding inhibition test for aldosterone receptor ([3H]aldosterone, rat renal soluble fraction)
# RECORDED_CONDITIONS: [3H]aldosterone 2 nM, rat renal soluble fraction, in the presence of 2 μM RU-486, 4° C. about 18 hours; read-out: MR IC50
# Procedure: Binding Inhibition Test for Aldosterone Receptor A rat was layed open in flank regions (on both sides) to remove both adrenal glands. After stitching up the incision, the rat was returnd to a breeding cage again. After removing the kidney from the rat reared for about 3 to 5 days, the kidney was homogenized in 0.1 M Tris-HCl, 0.25M sucrose, 0.1M Na2MoO4 and 2 mM DTT buffer solution (pH7.4). […]
PROPERTY_MEASURED: IC50 (nM)
Return type: number; implicit unit nM.

Measured IC50 of COc1cc(NC(=O)c2ccc(-c3ccc(F)cc3Cl)c(CNCC(F)F)c2)ccc1S(N)(=O)=O : 580

Measured IC50 of CCN(CC)c1cc(C(=O)Nc2ccc(S(N)(=O)=O)c(OC)c2)ccc1-c1ccccc1OC(F)(F)F : 100

Measured IC50 of CS(=O)(=O)c1ccc(NC(=O)c2ccc(-c3ccccc3OC(F)(F)F)c(CN3CCC(F)(F)C3)c2)cc1 : 420
